Value source: paper PMC11555261

study system: USP11 (recombinant USP11 protein) (Homo sapiens)
Construct: commercial recombinant human protein from Sf9 insect cells; His tag implied by RED-tris-NTA labelling
Sequence (P51784 whole entry): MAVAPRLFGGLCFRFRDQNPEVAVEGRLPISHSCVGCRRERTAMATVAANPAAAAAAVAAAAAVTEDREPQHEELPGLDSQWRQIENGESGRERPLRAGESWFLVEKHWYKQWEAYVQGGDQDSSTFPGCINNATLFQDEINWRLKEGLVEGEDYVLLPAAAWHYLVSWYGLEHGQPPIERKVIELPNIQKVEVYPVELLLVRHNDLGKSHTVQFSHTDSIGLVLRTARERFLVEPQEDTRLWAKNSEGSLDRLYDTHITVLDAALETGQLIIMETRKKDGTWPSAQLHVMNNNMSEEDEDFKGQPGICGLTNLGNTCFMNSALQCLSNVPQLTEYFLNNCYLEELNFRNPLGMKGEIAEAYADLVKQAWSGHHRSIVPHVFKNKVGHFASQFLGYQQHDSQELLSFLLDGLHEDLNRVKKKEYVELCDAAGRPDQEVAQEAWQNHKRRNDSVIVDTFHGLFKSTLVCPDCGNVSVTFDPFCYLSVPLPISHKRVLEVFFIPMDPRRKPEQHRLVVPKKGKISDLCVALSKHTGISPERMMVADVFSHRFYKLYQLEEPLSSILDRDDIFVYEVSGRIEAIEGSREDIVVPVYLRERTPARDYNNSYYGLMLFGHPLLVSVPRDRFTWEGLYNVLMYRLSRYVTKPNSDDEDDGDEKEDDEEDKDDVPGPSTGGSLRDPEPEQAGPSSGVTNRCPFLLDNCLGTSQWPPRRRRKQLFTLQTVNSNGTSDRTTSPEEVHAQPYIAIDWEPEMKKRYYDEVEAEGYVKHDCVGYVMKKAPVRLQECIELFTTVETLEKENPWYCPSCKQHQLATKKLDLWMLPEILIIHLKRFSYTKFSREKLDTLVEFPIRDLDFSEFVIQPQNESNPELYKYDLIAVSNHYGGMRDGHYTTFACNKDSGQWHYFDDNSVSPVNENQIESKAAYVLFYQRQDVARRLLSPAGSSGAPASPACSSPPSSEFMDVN
experiment notes: microscale thermophoresis
measured property: Kd (µM)
Respond with the bare value in µM.

The measured Kd associated with O=C(O)[C@@H]1CCCN1 reads 43.4
